Target: PDGFRB (Homo sapiens)
Construct: purchased Millipore
Sequence (P09619 33-1106): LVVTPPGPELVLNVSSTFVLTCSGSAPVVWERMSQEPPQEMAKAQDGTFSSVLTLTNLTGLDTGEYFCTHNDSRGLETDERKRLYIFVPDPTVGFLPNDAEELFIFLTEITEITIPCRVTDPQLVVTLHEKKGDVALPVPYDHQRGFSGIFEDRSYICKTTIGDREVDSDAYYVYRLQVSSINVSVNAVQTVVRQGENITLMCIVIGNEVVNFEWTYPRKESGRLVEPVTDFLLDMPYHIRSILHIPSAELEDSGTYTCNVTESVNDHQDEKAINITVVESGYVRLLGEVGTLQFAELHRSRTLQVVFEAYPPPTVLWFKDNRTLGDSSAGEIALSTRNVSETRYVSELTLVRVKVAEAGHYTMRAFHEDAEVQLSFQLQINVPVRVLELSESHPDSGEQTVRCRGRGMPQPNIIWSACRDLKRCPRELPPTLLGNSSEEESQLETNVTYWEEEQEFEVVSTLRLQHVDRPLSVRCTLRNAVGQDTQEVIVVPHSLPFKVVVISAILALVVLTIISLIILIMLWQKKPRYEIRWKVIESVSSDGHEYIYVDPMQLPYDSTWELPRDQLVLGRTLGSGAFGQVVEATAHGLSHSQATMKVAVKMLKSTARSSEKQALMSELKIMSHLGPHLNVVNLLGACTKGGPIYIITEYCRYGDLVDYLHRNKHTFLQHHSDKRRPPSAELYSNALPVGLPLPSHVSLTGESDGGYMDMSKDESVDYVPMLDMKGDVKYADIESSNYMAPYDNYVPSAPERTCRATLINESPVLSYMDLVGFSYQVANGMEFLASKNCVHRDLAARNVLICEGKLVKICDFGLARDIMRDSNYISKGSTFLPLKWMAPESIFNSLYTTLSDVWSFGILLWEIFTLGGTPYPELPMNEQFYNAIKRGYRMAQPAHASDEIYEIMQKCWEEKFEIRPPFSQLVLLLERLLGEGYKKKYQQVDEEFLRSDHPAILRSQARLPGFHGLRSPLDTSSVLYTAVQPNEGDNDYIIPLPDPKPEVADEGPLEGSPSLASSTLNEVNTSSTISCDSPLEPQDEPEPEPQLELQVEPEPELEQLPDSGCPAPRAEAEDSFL
Test: Z'-LYTE in vitro enzyme activity assay, PDGFRB
Assay type: biochemical
Settings: 100 μM ATP, 60 minutes, room temperature; read-out: IC50 detected by Z'-LYTE, PDGFRB
Entries annotated with measured IC50

Reference set (5 entries):
>>> result("COc1cc2nccc(Oc3ccc(NC(=S)NCC4CC4)c(Cl)c3)c2cc1C(N)=O [Example 59]")
"50 to 200 nM"
>>> result("COc1cc2nccc(Oc3ccc(Nc4c(NCc5ccccn5)c(=O)c4=O)c(Cl)c3)c2cc1C(N)=O [Example 150]")
"< 50 nM"
>>> result("COc1cc2nccc(Oc3ccc4c(NC(=S)NC5CC5)nn(C)c4c3)c2cc1C(N)=O [Example 193]")
"50 to 200 nM"
>>> result("COc1cc2nccc(Oc3ccc(NC(=O)N4CC(O)C4)c(Cl)c3F)c2cc1C(N)=O [Example 121]")
"200 to 1000 nM"
>>> result("[2H]C([2H])([2H])NC(=O)c1coc2cc(Oc3ccnc4cc(OC)c(C(N)=O)cc34)ccc12 [Example 200]")
"< 50 nM"

Okay, now this molecule:
Exam item: State, in one line, measured IC50 of COc1cc2nccc(Oc3ccc(NC(=S)NCCN(C)C)c(Cl)c3)c2cc1C(N)=O [Example 23]
Marked response: 50 to 200 nM

###

Target: VEGFR2 (Homo sapiens, UniProt P35968)
Construct: purchased Life technology
Sequence (P35968 20-1356): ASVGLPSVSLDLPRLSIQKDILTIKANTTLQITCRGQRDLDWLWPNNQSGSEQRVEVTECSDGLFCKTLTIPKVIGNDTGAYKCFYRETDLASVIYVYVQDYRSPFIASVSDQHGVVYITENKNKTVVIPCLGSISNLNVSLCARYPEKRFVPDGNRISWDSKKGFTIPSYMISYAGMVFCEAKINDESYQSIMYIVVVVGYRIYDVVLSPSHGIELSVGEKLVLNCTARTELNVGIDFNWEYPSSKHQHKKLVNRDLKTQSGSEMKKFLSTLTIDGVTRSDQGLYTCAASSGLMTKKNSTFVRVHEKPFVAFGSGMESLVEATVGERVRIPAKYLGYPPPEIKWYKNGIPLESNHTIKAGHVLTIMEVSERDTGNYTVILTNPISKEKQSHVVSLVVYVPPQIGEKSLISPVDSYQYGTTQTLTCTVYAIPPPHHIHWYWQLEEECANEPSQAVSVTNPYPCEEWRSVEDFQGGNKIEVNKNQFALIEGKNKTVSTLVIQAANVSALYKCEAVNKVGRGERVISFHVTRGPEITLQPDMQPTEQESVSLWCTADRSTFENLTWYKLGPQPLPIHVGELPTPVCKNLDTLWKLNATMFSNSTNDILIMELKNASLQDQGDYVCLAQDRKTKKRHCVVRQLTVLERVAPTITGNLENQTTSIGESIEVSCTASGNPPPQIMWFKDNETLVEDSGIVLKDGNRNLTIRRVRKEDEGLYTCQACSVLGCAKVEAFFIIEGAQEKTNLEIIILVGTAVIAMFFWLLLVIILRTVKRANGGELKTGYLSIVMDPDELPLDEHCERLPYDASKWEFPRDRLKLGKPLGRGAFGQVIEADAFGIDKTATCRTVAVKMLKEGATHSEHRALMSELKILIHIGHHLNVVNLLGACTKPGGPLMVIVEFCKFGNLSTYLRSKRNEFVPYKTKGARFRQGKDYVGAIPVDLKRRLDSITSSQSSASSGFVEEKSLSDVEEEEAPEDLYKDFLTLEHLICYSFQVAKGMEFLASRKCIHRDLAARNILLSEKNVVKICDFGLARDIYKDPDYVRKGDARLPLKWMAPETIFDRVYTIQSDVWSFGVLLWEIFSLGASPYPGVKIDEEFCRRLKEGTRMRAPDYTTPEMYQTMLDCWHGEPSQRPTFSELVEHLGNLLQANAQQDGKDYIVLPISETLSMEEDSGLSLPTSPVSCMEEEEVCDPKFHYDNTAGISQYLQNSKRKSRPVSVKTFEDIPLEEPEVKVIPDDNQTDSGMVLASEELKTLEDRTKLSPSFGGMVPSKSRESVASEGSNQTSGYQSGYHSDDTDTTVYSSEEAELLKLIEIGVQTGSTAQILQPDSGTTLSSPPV
Assay: Z'-LYTE in vitro enzyme activity assay, VEGFR2
Type: biochemical
Conditions: 100 μM ATP, 60 minutes, room temperature; read-out: IC50 detected by Z'-LYTE, VEGFR2
pIC50: −log10 of the molar value.
value-type: pIC50

Observe how each entry below is paired with its result.
>>> result("COc1cc2nccc(Oc3ccc(NC(=O)N4CC[C@H](F)C4)c(Cl)c3F)c2cc1C(N)=O [Example 117]")
"6.70 to 7.30"
>>> result("COc1cc2nccc(Oc3ccc4c(C(=O)N5CCCC5)c[nH]c4c3)c2cc1C(N)=O [Example 188]")
"6.00 to 6.70"
>>> result("COc1cc2nccc(Oc3ccc(NC(=S)Nc4ccccc4F)c(Cl)c3)c2cc1C(N)=O [Example 65]")
"6.70 to 7.30"

Exam item: Tell me its pIC50 given [2H]C([2H])([2H])NC(=S)Nc1ccc(Oc2ccnc3cc(OC)c(C(N)=O)cc23)c(F)c1Cl [Example 112] as the entry.
Marked response: > 7.30

Exam item: Identify measured pIC50 corresponding to COc1ccc2c(Oc3ccc(NC(=S)N4CC(F)(F)C4)c(Cl)c3)ccnc2c1 [Example 171]
Marked response: 6.00 to 6.70

Exam item: Item COc1cc2nccc(Oc3ccc4nc(NCc5cccc(C(F)(F)F)c5)sc4c3)c2cc1C(N)=O [Example 161] : provide pIC50
Marked response: 6.00 to 6.70

Exam item: Write down pIC50 measured for item COc1cc2ncc(Cl)c(Oc3ccc(NC(=S)N4CCCC4)c(Cl)c3)c2cc1C(N)=O [Example 88]
Marked response: 6.00 to 6.70

Exam item: Output measured pIC50 for this item: COc1cc2nccc(Oc3ccc(NC(=S)NC4CC4)c(Cl)c3)c2cc1C#N [Example 80]
Marked response: 6.70 to 7.30
